# Test system: human platelet rich plasma
# ASSAY TEXT: Platelet aggregation induced by arachidonic acid
# Type: cell-based
# STUDY CONDITIONS: preincubation 12 minutes; compound 600 µM, 37° C.; arachidonic acid 200 µM
Provide the reported Platelet Aggregation (% of control) of each item.

Input `CCCCCC(=O)Oc1ccc(-c2ccc(F)cc2F)cc1C(=O)O` . Output Platelet Aggregation (% of control): 89.3 ± 0.1 % of control

Input `CCCC(=O)Oc1ccccc1C(=O)O` . Output Platelet Aggregation (% of control): 0 % of control

Input `CCCCCC(=O)Oc1ccccc1C(=O)O` . Output Platelet Aggregation (% of control): 0 % of control

Input `CCCCC(=O)Oc1ccccc1C(=O)O` . Output Platelet Aggregation (% of control): 0 % of control

Input `CCC(=O)Oc1ccccc1C(=O)O` . Output Platelet Aggregation (% of control): 0 % of control

Input `CC(=O)Oc1ccc(-c2ccc(F)cc2F)cc1C(=O)O` . Output Platelet Aggregation (% of control): 0 % of control

Input `CCCCC(=O)Oc1ccc(-c2ccc(F)cc2F)cc1C(=O)O` . Output Platelet Aggregation (% of control): 75.9 ± 0.1 % of control

Input `CCCCCCC(=O)Oc1ccc(-c2ccc(F)cc2F)cc1C(=O)O` . Output Platelet Aggregation (% of control): 90.8 ± 0.8 % of control
